assay text: NCI Yeast Anticancer Drug Screen. Data for the sgs1 mgt1 strain (AID 161);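 also: 0% = growth of cultures given vehicle only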
settings: S. cerevisiae sgs1 mgt1 strain, at 50.0 µM, hits give high values
The panel holds about 79,000 compounds, 15% with a hit somewhere; the sample as a whole holds those more often.
Threshold check on growth inhibition: at or above -10% gives T, strictly below gives F.

Examples with answers:
O=C1c2ccccc2C(=O)N1CN1CCC(CCCC2CCN(CN3C(=O)c4ccccc4C3=O)CC2)CC1
F
C/C(=C/CNc1ncnc2c1ncn2CCC(=O)O)CO
F
O=C(c1ccc(-c2ccccc2)cc1)N(C(=O)c1cc(N2CCOCC2)ccn1)c1ccc([N+](=O)[O-])cc1
T

Task: Dear colleague, could you confirm whether CS(=O)(=O)c1nc(Cl)c2[nH]c(Cl)nc2n1 has growth inhibition at or above -10%?
Output: T

Task: Dear colleague, could you confirm whether O=C(O)C12C3CCC(C3)C1(C(=O)O)C1CCC2C1 (centres undefined) has growth inhibition at or above -10%?
Output: F

Task: Dear colleague, could you confirm whether CCOC(=O)CCC(=O)N(CC)CC has growth inhibition at or above -10%?
Output: T

Task: Dear colleague, could you confirm whether N#CC(=O)Nc1ccc(Cl)c(Cl)c1 has growth inhibition at or above -10%?
Output: F

Task: Dear colleague, could you confirm whether Cc1ccc(S(=O)(=O)NN=C2CCCCCC2)cc1 has growth inhibition at or above -10%?
Output: T

Task: Dear colleague, could you confirm whether N/C(=N\O)c1ccccc1 has growth inhibition at or above -10%?
Output: T

---

assay text: NCI Yeast Anticancer Drug Screen. Data for the sgs1 mgt1 strain (AID 161);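 also: 0% = growth of cultures given vehicle only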
settings: S. cerevisiae sgs1 mgt1 strain, at 50.0 µM, hits give high values
This is part of a sample that, as a whole, favours compounds with a hit. Of some 79,000 tested, about 15% had one in any assay.
Catalogue of compounds with associated growth inhibition
Write the number in % without appending the unit.

Some solved entries appear below for comparison.
C[N+]1(C)N=C([O-])N(CCCCCCN2C(=O)[N+](C)(C)N=C2[O-])C1=O
15.1
CC1=CC(=O)N2C(OC[C@@H]2c2ccccc2)O1 (stereo not given in full)
-12.9
COC(=O)C1(CC(=O)c2cc(Cl)ccc2Cl)NC(=S)NC(=O)C1C#N (stereo not given)
-8.15
CCn1c(=O)c2[nH]c(Cl)nc2n(CC(C)Cl)c1=O (stereo not given)
6.15
CC1=C(c2ccco2)C(c2ccco2)OC1=O (stereo not given)
15.9

Task: # input compound: Cc1cc(C)n(-c2ccc([N+](=O)[O-])cn2)n1 ; wanted: its growth inhibition
Output: -1.3

Task: # input compound: CC(=NNC(=S)Nc1cccc(C)c1)c1cccc(C(C)=NNC(=S)Nc2cccc(C)c2)n1 ; wanted: its growth inhibition
Output: 62.6

Task: # input compound: CN(C)/C=C(/N=C(C#N)C#N)C1OCCO1 ; wanted: its growth inhibition
Output: -2.55

Task: # input compound: CC(C)C(NC(=O)OC(c1ccccc1)c1ccccc1)C(=O)NC(CSC(c1ccccc1)(c1ccccc1)c1ccccc1)C(=O)NCC(=O)OCc1ccccc1 (stereo not given) ; wanted: its growth inhibition
Output: 4.55

Task: # input compound: CCOC(=O)C(=[N+]=[N-])C(=O)CN1C(=O)C2CC(C)=C(C)CC2C1O (stereo not given) ; wanted: its growth inhibition
Output: -4.45

Task: # input compound: O=c1c(C(=Nc2ccccc2)c2ccccc2)c[nH]n1-c1ccccc1 ; wanted: its growth inhibition
Output: -6

Task: # input compound: O=C(O)c1ccccc1Nc1ccccc1 ; wanted: its growth inhibition
Output: 3.8

Task: # input compound: Nc1ccc(N)c2cc(S(=O)(=O)O)ccc12 ; wanted: its growth inhibition
Output: -5.1

Task: # input compound: CCOC(=O)/C(=C/c1cc(OC)ccc1OC)P(=O)(OCC)OCC ; wanted: its growth inhibition
Output: -17.6

Task: # input compound: O=C(O)c1scc2c1CCCC2 ; wanted: its growth inhibition
Output: -7.5
